target: HLA-A*01:01; experiment: IEDB peptide-MHC binding, purified MHC/direct/fluorescence; filed as Kd, often an IC50 or EC50 that approximates it; bounds were set here for any values at or beyond the usual limits of such assays; settings: source organism: Homo sapiens
readout.label: pKd
The scale used: pKd is minus the common logarithm of the concentration in molar units.

Bench note: what pKd did "ATDFKFAMY" show?
6.87

---

biological target: HLA-A*24:02; assay: IEDB peptide-MHC binding, purified MHC/competitive/radioactivity; filed as Kd, often an IC50 or EC50 that approximates it; bounds were set here for any values at or beyond the usual limits of such assays; conditions: source organism: Triticum aestivum
readout.label: Kd
Give the value; after it, write the unit.

Returns the measured Kd for the input sequence. Input: "QYPSGQGSF"
3.39 µM

Values from the Immune Epitope Database (IEDB)
